Test system: Rattus norvegicus
Assay: Gastrointestinal toxicity in Albino rat assessed as severity index at 60 mg/kg, po after 17 hrs relative to control
Type: organism-based
Set-up: dose 60 mg/kg, route oral
Conditions: in vivo
outcome.measure: Activity
Output: the number by itself.

Exam item: Observed Activity on Rattus norvegicus for COc1ccc(-c2cc(=O)c3cc(CN4CCNCC4)ccc3o2)cc1OC , please.
Marked response: 0.4

Exam item: // fetch Rattus norvegicus Activity for COc1ccc(-c2cc(=O)c3cc(CN4CCNCC4)ccc3o2)cc1
Marked response: 0.4

Exam item: // fetch Rattus norvegicus Activity for COc1ccc(-c2cc(=O)c3cc(CN4CCOCC4)ccc3o2)cc1OC
Marked response: 0.1

Exam item: What Activity appears in the records for this compound with Rattus norvegicus? COc1ccc(-c2cc(=O)c3cc(CN4CCOCC4)ccc3o2)cc1
Marked response: 0.2

Exam item: Param readout = Activity; param system = Rattus norvegicus; param query = O=c1cc(-c2ccccc2Cl)oc2ccc(CN3CCNCC3)cc12 ; response: value
Marked response: 0.3

Exam item: Fill in the recorded Activity for this compound, with Rattus norvegicus as test system: CC(C)Cc1ccc(C(C)C(=O)O)cc1 (configuration not stated) [IBUPROFEN]
Marked response: 0.9

Exam item: Look up Activity with Rattus norvegicus for this compound: O=c1cc(-c2ccccc2Cl)oc2ccc(CN3CCOCC3)cc12
Marked response: 0.1
